These measurements were taken from patent US20210340548A1.

Biological target: Cry2 PHR (L348F)-p65AD-NLSx2 fusion construct as released from the TetR (I194T, 1-206)-CIB1 (-NLS)-T2A-Cry2 PHR (L348F)-p65AD-NLSx2 fusion construct
Sequence (Q96524 other isoform, or with tags, fused parts or gaps L348F I194T L348F L348F I194T L348F): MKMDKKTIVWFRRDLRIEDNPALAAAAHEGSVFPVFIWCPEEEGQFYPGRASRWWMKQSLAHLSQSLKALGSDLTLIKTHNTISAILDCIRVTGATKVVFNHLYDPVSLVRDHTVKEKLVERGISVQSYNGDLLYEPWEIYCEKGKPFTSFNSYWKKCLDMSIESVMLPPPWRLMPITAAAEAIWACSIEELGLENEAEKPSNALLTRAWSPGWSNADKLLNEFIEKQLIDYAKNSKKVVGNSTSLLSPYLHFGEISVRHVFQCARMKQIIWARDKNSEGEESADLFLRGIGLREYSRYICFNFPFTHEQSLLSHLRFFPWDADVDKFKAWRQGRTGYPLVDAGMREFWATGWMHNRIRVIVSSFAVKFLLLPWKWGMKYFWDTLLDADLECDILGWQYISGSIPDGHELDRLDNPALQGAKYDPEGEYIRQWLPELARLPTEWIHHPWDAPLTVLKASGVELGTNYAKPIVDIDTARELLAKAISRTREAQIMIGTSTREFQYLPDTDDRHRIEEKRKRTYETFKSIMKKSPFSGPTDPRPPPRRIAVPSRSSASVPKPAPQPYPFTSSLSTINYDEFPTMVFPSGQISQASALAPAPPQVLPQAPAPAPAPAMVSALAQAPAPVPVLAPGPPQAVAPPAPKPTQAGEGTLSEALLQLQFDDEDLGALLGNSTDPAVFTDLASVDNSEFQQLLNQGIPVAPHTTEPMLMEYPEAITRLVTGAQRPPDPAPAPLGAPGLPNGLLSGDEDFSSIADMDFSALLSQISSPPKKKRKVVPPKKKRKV
Test: cell-based or functional assay
Measured Average of the Light/Dark ratio, Dox 75 ng/mL accompanies every entry in the list below.
Metric: Average of the Light/Dark ratio, Dox 75 ng/mL

binder="TetR (I194T, H100Y, 1-206)-CIB1 (-NLS) from the T2A construct (protein, part only, T2A residues at C-terminus) MARLDKSKVINSALELLNEVGIEGLTTRKLAQKLGVEQPTLYWHVKNKRALLDALAIEMLDRHHTHFCPLEGESWQDFLRNNAKSFRCALLSHRDGAKVYLGTRPTEKQYETLENQLAFLCQQGFSLENALYALSAVGHFTLGCVLEDQEHQVAKEERETPTTDSMPPLLRQAIELFDHQGAEPAFLFGLELITCGLEKQLKCESGSPKKKHMEFNGAIGGDLLLNFPDMSVLERQRAHLKYLNPTFDSPLAGFFADSSMITGGEMDSYLSTAGLNLPMMYGETTVEGDSRLSISPETTLGTGNFKAAKFDTETKDCNEAAKKMTMNRDDLVEEGEEEKSKITEQNNGSTKSIKKMKHKAKKEENNFSNDSSKVTKELEKTDYI" reading=19.4
binder="rTetR (I194T, rtTA mutation, 1-206)-CIB1 (-NLS) from the T2A construct (protein, part only; not given: Leftover T2A residues, part only) chain, part: MARLDKSKVINSALELLNEVGIEGLTTRKLAQKLGVEQPTLYWHVKNKRALLDALAIEMLDRHHTHFCPLKGESWQDFLRNNAKSFRCALLSHRNGAKVHSDTRPTEKQYETLENQLAFLCQQGFSLENALYALSAVGHFTLGCVLEDQEHQVAKEERETPTTDSMPPLLRQAIELFDHQGAEPAFLFGLELITCGLEKQLKCESGSPKKKHMEFNGAIGGDLLLNFPDMSVLERQRAHLKYLNPTFDSPLAGFFADSSMITGGEMDSYLSTAGLNLPMMYGETTVEGDSRLSISPETTLGTGNFKAAKFDTETKDCNEAAKKMTMNRDDLVEEGEEEKSKITEQNNGSTKSIKKMKHKAKKEENNFSNDSSKVTKELEKTDYI" reading=22.5
binder="rTetR (I194T, V10 mutation, 1-206)-CIB1 (-NLS) from the T2A construct (protein, part only; not given: Leftover T2A residues, part only) chain, part: MARLDKSKVINSALELLNGVGIEGLTTRKLAQKLGVEQPTLYWHVKNKRALLDALPIEMLDRHHTHSCPLEGESWQDFLRNNAKSYRCALLSHRDGAKVHLGTRPTEKQYETLENQLAFLCQQGFSLENALYALSAVGHFTLGCVLEEQEHQVAKEERETPTTDSMPPLLKQAIELFDRQGAEPAFLFGLELITCGLEKQLKCESGSPKKKHMEFNGAIGGDLLLNFPDMSVLERQRAHLKYLNPTFDSPLAGFFADSSMITGGEMDSYLSTAGLNLPMMYGETTVEGDSRLSISPETTLGTGNFKAAKFDTETKDCNEAAKKMTMNRDDLVEEGEEEKSKITEQNNGSTKSIKKMKHKAKKEENNFSNDSSKVTKELEKTDYI" reading=32.8
